# credit: PubChem BioAssay (NCATS)

Experiment: qHTS Assay for Lipid Storage Modulators (AID 1519)
Conditions: Drosophila S3 cells, BODIPY lipid droplet/cell ratio, laser cytometry; measured here: cell count channel max response; cells loaded with oleic acid
Records with an inconclusive call do not appear.

{"molecule": "COc1ccc2cc1Oc1ccc(cc1)CC1c3cc(c(OC)cc3CCN1C)Oc1c(OC)c(OC)cc3c1C(C2)N(C)CC3 (stereo not given)", "result-units": "%", "max response": -1.03}
{"molecule": "CC(C)(C)NC[C@H](O)c1cc(Cl)c(N)c(Cl)c1", "result-units": "%", "max response": 1.84}
{"molecule": "CC(=O)OC1C(=O)[C@]2(C)C(O)CC3OC[C@]3(OC(C)=O)C2[C@@H](OC(=O)c2ccccc2)[C@]2(O)CC(O)C(C)=C1C2(C)C (stereo not given in full)", "result-units": "%", "max response": 3.27}
{"molecule": "CC(C)NC(=O)N1CCCC2(CCN(C(=O)Oc3ccccc3)CC2)C1", "result-units": "%", "max response": 27.7}
{"molecule": "C[C@@]12CCC(Cl)C[C@H]1CCC1C2CC[C@]2(C)C(=O)CCC12 (stereo not given in full)", "result-units": "%", "max response": 9.07}
{"molecule": "COc1ccc2c(c1OC)C(=O)O[C@H]2[C@H]1c2cc3c(cc2CCN1C)OCO3", "result-units": "%", "max response": -6.69}
{"molecule": "CC(C)(O)[C@@H]1C2OC(=O)[C@@H]1[C@]1(O)C[C@H]3O[C@]34C(=O)O[C@H]2[C@]14C", "result-units": "%", "max response": 3.27}
{"molecule": "O=C(O)COc1ccc(Cl)cc1Cl", "result-units": "%", "max response": -3.68}
{"molecule": "COc1cc2c(c(OC)c1OC)-c1ccc(O)c(=O)cc1[C@H](N)CC2", "result-units": "%", "max response": -6.02}
{"molecule": "COc1c2c(cc3c1OCO3)C13C=CC(OC)CC1N(C2)CC3O (stereo not given)", "result-units": "%", "max response": 12.8}
{"molecule": "COc1cc2c(cc1O)CC1c3c(cc(O)c(OC)c3-2)CCN1C (stereo not given)", "result-units": "%", "max response": 24.1}
{"molecule": "CN1C[C@H](C(=O)N[C@@]2(C)O[C@@]3(O)C4CCCN4C(=O)C(Cc4ccccc4)N3C2=O)C[C@H]2c3cccc4[nH]cc(c34)C[C@H]21 (stereo not given in full)", "result-units": "%", "max response": 8.55}
{"molecule": "CN1CCc2cc3c(cc2C1O)OCO3 (stereo not given)", "result-units": "%", "max response": 9.52}
{"molecule": "O=C(c1ccncc1)N1CCC[C@@]2(CCN(Cc3nccs3)C2)C1", "result-units": "%", "max response": 8.75}
{"molecule": "C[C@]12CCC(=O)C=C1CCc1ccc(O)cc12", "result-units": "%", "max response": -10.5}
{"molecule": "N#Cc1cccc(NC(=O)N2CC3(CCN(C(=O)Oc4ccccc4)CC3)C2)c1", "result-units": "%", "max response": -4.33}
{"molecule": "C#CCN(C)[C@@H](C)Cc1ccccc1", "result-units": "%", "max response": 2.02}
{"molecule": "CC1(C)C(=O)C=C[C@@]2(C)C1CC(O)[C@]1(C)C2CC[C@@]2(C)C(c3ccoc3)OC(=O)C3O[C@]312 (stereo not given in full)", "result-units": "%", "max response": 13.8}
{"molecule": "CCN1C[C@]2(C)CC[C@H](OC)[C@@]34[C@@H]2[C@H](OC(C)=O)[C@]2(OCO[C@@]25C[C@@H](OC)[C@@H]2C[C@@]3(O)[C@H]5[C@@H]2OC)[C@H]14", "result-units": "%", "max response": -0.005}
{"molecule": "N[C@H]1C[C@H]1c1ccccc1", "result-units": "%", "max response": 5.35}
